TARGET: VEGF-R (vascular endothelial growth factor receptor-2) (Rattus norvegicus, UniProt O08775)
Construct: polyhistidine (6xHIS) (N)
Sequence (O08775 786-1343): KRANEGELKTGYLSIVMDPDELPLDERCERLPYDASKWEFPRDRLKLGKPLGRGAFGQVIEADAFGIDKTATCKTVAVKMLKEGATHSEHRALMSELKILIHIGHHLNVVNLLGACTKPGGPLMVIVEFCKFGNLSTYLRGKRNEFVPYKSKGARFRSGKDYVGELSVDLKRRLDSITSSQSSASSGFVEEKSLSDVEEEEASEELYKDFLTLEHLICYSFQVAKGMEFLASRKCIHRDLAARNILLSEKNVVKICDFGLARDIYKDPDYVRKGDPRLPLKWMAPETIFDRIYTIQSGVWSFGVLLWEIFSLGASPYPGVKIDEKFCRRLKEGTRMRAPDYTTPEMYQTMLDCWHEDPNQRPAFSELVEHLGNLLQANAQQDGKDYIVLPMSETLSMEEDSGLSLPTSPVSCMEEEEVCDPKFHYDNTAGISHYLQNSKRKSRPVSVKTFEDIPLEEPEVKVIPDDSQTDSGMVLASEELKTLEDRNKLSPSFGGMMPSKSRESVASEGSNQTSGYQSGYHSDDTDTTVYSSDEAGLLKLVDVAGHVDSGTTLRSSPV
EXPERIMENTAL_DETAILS: VEGF-R Screening Assay
Format: biochemical
CONDITION_INFO: Table 1; read-out: VEGF-R IC50
pIC50: −log10 of the molar value.

>  <MOLECULE>
Nc1nc(Nc2ccc(S(N)(=O)=O)cc2)nn1C(=O)c1ccc(F)cc1F [Cpd 5]

>  <RELATIONAL_OPERATOR>
=

>  <pIC50>
6.28

$$$$
>  <MOLECULE>
Nc1nc(Nc2ccc(S(N)(=O)=O)cc2)nn1C(=O)c1ccccc1 [Cpd 12]

>  <RELATIONAL_OPERATOR>
=

>  <pIC50>
7.08

$$$$
>  <MOLECULE>
CN(C)CCNS(=O)(=O)c1ccc(Nc2nc(N)n(C(=O)c3c(F)cccc3F)n2)cc1 [Cpd 106]

>  <RELATIONAL_OPERATOR>
=

>  <pIC50>
6.25

$$$$
>  <MOLECULE>
Cc1ccsc1C(=O)n1nc(Nc2ccc(N3CCN(C)CC3)cc2)nc1N [Cpd 73]

>  <RELATIONAL_OPERATOR>
=

>  <pIC50>
7.54

$$$$
>  <MOLECULE>
Nc1nc(Nc2ccc(S(=O)(=O)O)cc2)nn1C(=O)c1c(F)cccc1F [Cpd 59]

>  <RELATIONAL_OPERATOR>
=

>  <pIC50>
6.04

$$$$
>  <MOLECULE>
Cc1ccc(F)c(C(=O)n2nc(Nc3ccc(N4CCN(C)CC4)cc3)nc2N)c1F [Cpd 72]

>  <RELATIONAL_OPERATOR>
=

>  <pIC50>
6.42

$$$$
>  <MOLECULE>
Cc1cc(C)c(C(=O)n2nc(Nc3ccc(S(N)(=O)=O)cc3)nc2N)c(C)c1 [Cpd 11]

>  <RELATIONAL_OPERATOR>
<

>  <pIC50>
4.00

$$$$
>  <MOLECULE>
Nc1nc(Nc2ccc(-n3cncn3)cc2)nn1C(=O)c1c(F)cccc1F [Cpd 96]

>  <RELATIONAL_OPERATOR>
=

>  <pIC50>
6.09

$$$$
>  <MOLECULE>
Nc1nc(Nc2ccc(S(N)(=O)=O)cc2)nn1C(=O)c1cc2ccccc2s1 [Cpd 31]

>  <RELATIONAL_OPERATOR>
=

>  <pIC50>
7.36

$$$$
>  <MOLECULE>
CNc1nc(N)n(C(=O)c2sccc2C)n1 [Cpd 79]

>  <RELATIONAL_OPERATOR>
<

>  <pIC50>
4.00

$$$$
>  <MOLECULE>
CC(C)(C)c1ccc(C(=O)n2nc(Nc3ccc(S(N)(=O)=O)cc3)nc2N)s1 [Cpd 51]

>  <RELATIONAL_OPERATOR>
=

>  <pIC50>
7.72

$$$$
>  <MOLECULE>
CC(O)c1ccc(F)c(C(=O)n2nc(Nc3ccc(S(N)(=O)=O)cc3)nc2N)c1F (stereo not shown) [Cpd 58]

>  <RELATIONAL_OPERATOR>
=

>  <pIC50>
6.38

$$$$
>  <MOLECULE>
CC(C)(C)OC(=O)/C=C/c1ccc(C(=O)n2nc(Nc3ccc(S(N)(=O)=O)cc3)nc2N)s1 [Cpd 52]

>  <RELATIONAL_OPERATOR>
=

>  <pIC50>
6.96

$$$$
>  <MOLECULE>
Nc1nc(Nc2ccc(S(N)(=O)=O)cc2)nn1C(=O)c1sccc1Cl [Cpd 17]

>  <RELATIONAL_OPERATOR>
=

>  <pIC50>
7.57

$$$$
>  <MOLECULE>
CC(=O)Nc1ccsc1C(=O)n1nc(Nc2ccc(S(N)(=O)=O)cc2)nc1N [Cpd 19]

>  <RELATIONAL_OPERATOR>
=

>  <pIC50>
6.54

$$$$
>  <MOLECULE>
Cc1cc(C)c(C(=O)n2nc(Nc3ccc(N4CCN(C)CC4)cc3)nc2N)s1 [Cpd 74]

>  <RELATIONAL_OPERATOR>
=

>  <pIC50>
7.68

$$$$
>  <MOLECULE>
Cc1ccc(F)c(C(=O)n2nc(Nc3ccc(-n4cnnc4)cc3)nc2N)c1F [Cpd 101]

>  <RELATIONAL_OPERATOR>
=

>  <pIC50>
6.19

$$$$
